Kindly state EC50 for each of the entries shown.
- Study target: S. pyogenes SKKanGAS, kanamycin survival, BacTiterGlo, 6 h
- Run description: S. pyogenes SKKanGAS kanamycin growth inhibitors – SKKanGAS strain, luminescence, dose confirmation, streptokinase promoter inhibitor project, dose response (AID 1902);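 note: lower survival reflects blocked streptokinase promoter driving kanamycin resistance gene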

[ask] Reported EC50 for COc1ccc(S(=O)(=O)Nc2cc3c4c(oc3c3ccccc23)CC(C)(C)CC4=O)cc1 : what is it?
[reply] 6260 nM

[ask] Give the measured EC50 of Cc1ccc(-n2c(-c3ccc(Br)cc3)c[n+]3c2CCc2ccc4cccnc4c2-3)cc1 .
[reply] 3600 nM

[ask] Name the recorded EC50 for O=C(CP(=O)(c1ccccc1)c1ccccc1)N/N=C/c1cc(Br)cc(Br)c1O .
[reply] 804 nM

[ask] Can you look up the measured EC50 of Oc1cccc2ccc(/C=C/c3ccccc3Cl)nc12 for me?
[reply] 248 nM

[ask] Sample Cc1cccc2nc(COc3ccc4ccccc4c3Br)cn12 — what was its EC50?
[reply] 4940 nM

[ask] State the recorded EC50 for this entry: O=c1c2cc(Br)ccc2nc(-c2cccc(Cl)c2)n1O
[reply] 1090 nM

[ask] // EC50 lookup, key: COC(=O)C1N2C(=O)[C@@H](NC(=O)COc3ccccc3)[C@H]2SC1(C)C (some centres not stated)
[reply] 377 nM
